Below, each entry is listed with its recorded MIC.
test system: Ser. marcescens W-35; experiment: Minimum inhibitory concentration (MIC), Heart Infusion agar; assay type: cell-based; conditions: Serratia marcescens, W35, 20 h, Ser. marcescens W-35; 10^6 cells/ml; 20 hours, 37° C. (Table 1); read-out: minimum inhibitory concentration (MIC)
// note: answer is a bare numeric in µg/mL

| compound | MIC [µg/mL] |
| --- | --- |
| CCN1CCN(C(=O)NC(C(=O)N[C@]2(OC)C(=O)N3C(C(=O)O)=C(CSc4nnnn4C)CS[C@@H]32)c2cccs2)C(=O)C1=O (stereo partly drawn) [drawing 22] | 6.25 |
| CCN1CCN(C(=O)N[C@@H](C(=O)N[C@]2(OC)C(=O)N3C(C(=O)O)=C(COC(C)=O)CS[C@@H]32)c2cccs2)C(=O)C1=O | 50 |

Let us move to another entry and its MIC.
Look up MIC: CCN1CCN(C(=O)NC(C(=O)N[C@]2(OC)C(=O)N3C(C(=O)O)=C(CSc4nnnn4CC(N)=O)CS[C@@H]32)c2cccs2)C(=O)C1=O (stereo partly drawn) 12.5

* * *

Below, each entry is listed with its recorded Stability to β-lactamase, relative degree of hydrolysis.
tested on: Penicillinase (K. pneumoniae Y-4); assay: Stability to β-lactamase, iodometry (Perret); assay type: biochemical; settings: K. pneumoniae Y-4 penicillinase; PCG = 100; 30° C., pH 7.0
Just the number, please, no unit attached.

Consider the worked cases shown below.
| mol | readout.value |
| --- | --- |
| Cc1nnc(SCC2=C(C(=O)O)N3C(=O)[C@@H](NC(=O)Cn4cnnn4)[C@H]3SC2)s1 | 4 |
| O=C(Cc1cccs1)N[C@@H]1C(=O)N2C(C(=O)[O-])=C(C[n+]3ccccc3)CS[C@H]12 | 41 |

Let us move to another entry and its Stability to β-lactamase, relative degree of hydrolysis.
Look up Stability to β-lactamase, relative degree of hydrolysis: CC1(C)S[C@@H]2[C@H](NC(=O)Cc3ccccc3)C(=O)N2[C@H]1C(=O)O 100

* * *

test system: Penicillinase (P. aeruginosa GN-3379); assay: Stability to β-lactamase, iodometry (Perret); format: biochemical; settings: P. aeruginosa GN-3379 penicillinase; PCG = 100; 30° C., pH 7.0
outcome.measure: Stability to β-lactamase, relative degree of hydrolysis
Just the number, please, no unit attached.

| molecule | readout.value |
| --- | --- |
| Cc1nnc(SCC2=C(C(=O)O)N3C(=O)[C@@H](NC(=O)Cn4cnnn4)[C@H]3SC2)s1 [CEZ, Cefazolin] | 2 |
| CCN1CCN(C(=O)NC(C(=O)N[C@]2(OC)C(=O)N3C(C(=O)O)=C(CSc4nnnn4C)CS[C@@H]32)c2cccs2)C(=O)C1=O (stereo partly shown) [Example T-1414] | 0.03 |
| O=C(Cc1cccs1)N[C@@H]1C(=O)N2C(C(=O)[O-])=C(C[n+]3ccccc3)CS[C@H]12 [CER, Cephaloridin] | 18 |

Let us move to another entry and its Stability to β-lactamase, relative degree of hydrolysis.
Field: Stability to β-lactamase, relative degree of hydrolysis (Penicillinase (P. aeruginosa GN-3379)). Entry: CC1(C)S[C@@H]2[C@H](NC(=O)Cc3ccccc3)C(=O)N2[C@H]1C(=O)O [PC-G, Penicillin G] 100

The origin of these recorded values is patent US4321265A.
